Molecular target: PI3Kγ (Homo sapiens, UniProt P48736)
Construct: purchased Invitrogen PR8641C
Sequence (P48736 whole entry): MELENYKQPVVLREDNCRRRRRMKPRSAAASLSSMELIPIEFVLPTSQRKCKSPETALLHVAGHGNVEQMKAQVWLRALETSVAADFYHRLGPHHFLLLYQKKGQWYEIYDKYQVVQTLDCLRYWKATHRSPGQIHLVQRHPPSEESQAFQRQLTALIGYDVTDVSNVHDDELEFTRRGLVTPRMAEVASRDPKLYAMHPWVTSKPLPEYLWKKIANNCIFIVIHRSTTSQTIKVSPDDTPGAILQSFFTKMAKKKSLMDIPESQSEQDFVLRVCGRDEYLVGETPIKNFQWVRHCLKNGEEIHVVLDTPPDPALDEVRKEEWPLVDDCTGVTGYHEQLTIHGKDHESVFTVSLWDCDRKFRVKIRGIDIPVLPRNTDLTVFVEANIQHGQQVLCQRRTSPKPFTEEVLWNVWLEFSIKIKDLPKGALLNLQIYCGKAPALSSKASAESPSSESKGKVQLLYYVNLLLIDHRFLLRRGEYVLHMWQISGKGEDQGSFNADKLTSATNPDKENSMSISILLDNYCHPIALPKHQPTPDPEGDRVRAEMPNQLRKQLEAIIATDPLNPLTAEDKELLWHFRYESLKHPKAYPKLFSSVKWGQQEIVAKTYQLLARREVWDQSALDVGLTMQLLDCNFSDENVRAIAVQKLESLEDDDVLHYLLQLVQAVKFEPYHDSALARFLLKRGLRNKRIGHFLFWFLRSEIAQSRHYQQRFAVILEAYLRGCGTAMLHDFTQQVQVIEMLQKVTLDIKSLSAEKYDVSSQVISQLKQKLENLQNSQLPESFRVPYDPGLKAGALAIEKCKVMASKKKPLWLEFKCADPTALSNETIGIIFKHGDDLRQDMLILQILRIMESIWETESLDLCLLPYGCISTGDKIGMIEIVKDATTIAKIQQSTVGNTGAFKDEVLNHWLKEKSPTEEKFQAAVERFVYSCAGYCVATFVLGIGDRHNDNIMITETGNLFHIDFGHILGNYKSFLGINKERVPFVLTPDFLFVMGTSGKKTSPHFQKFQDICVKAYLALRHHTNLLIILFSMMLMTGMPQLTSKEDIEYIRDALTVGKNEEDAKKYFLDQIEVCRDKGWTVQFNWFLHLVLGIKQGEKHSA
Test: PI3Kγ activity inhibition (ADP-Glo)
Format: biochemical
Conditions: Table 4, graded
Description: Detecting the inhibition capability of the compound to PI3Kβ and PI3Kγ activities with ADP-Glo (purchased from Promege Company; Catalog No.: v9102/3). […] The reaction system also comprises substrates as PIP2 and ATP. The reaction buffer system comprises 50 mM HEPES, 3 mM MgCl2, 1 mM EGTA, 100 mM NaCl, 0.03% CHAPS and 2 mM DTT. The pH value of the reaction buffer is 7.5. […]
measured property: IC50

[[record]]
molecule = "CN(Cc1nc2c(N3CCOCC3)nc(-c3ccncc3)nc2n1C)c1ncc(C(=O)NO)cn1 [CLJ-8]"
reported_value = "> 10 µM"

[[record]]
molecule = "COc1ccc(-c2nc(N3CCOCC3)c3nc(CN(C)c4ncc(C(=O)NO)cn4)n(C)c3n2)cn1 [CLJ-1]"
reported_value = "0.1 to 1 µM"

[[record]]
molecule = "CN(Cc1nc2c(N3CCOCC3)nc(-c3cnc(N)nc3)nc2n1C)c1ncc(C(=O)NO)cn1 [CLJ-11]"
reported_value = "0.001 to 0.1 µM"


Notebook: CN(Cc1nc2c(N3CCOCC3)nc(-c3ccc(N)cc3)nc2n1C)c1ncc(C(=O)NO)cn1 [CLJ-44] , IC50 read as > 10 µM

Notebook: COc1ccc(-c2nc(N3CCOCC3)c3nc(CN(C)c4ncc(C(=O)NO)cn4)n(C)c3n2)cc1 [CLJ-29] , IC50 read as > 10 µM

Notebook: Cc1[nH]c2ccccc2c1CCNCc1ccc(/C=C/C(=O)NO)cc1 [LBH589, panobinostat, reference compound] , IC50 read as > 10 µM
